Molecular target: Adenosine receptor A3 (Homo sapiens)
Experiment: Increase of efficacy at human adenosine A3 receptor in CHO cells at 10 uM relative to 2-Cl-IB-MECA
QUANTITY_KIND: Activity (%)

>  <STRUCTURE>
Clc1ccc(Nc2nc3ccccc3c3nc(C4CCCCC4)[nH]c23)cc1Cl

>  <QUANTITY_KIND>
Activity

>  <READOUT_VALUE>
145

$$$$
>  <STRUCTURE>
Cc1ccc(Nc2nc3ccccc3c3[nH]c(C4CCCC4)nc23)cc1

>  <QUANTITY_KIND>
Activity

>  <READOUT_VALUE>
128

$$$$
>  <STRUCTURE>
c1ccc(Nc2nc3ccccc3c3[nH]c(C4CCCC4)nc23)cc1

>  <QUANTITY_KIND>
Activity

>  <READOUT_VALUE>
138

$$$$
>  <STRUCTURE>
Clc1ccc(Nc2nc3ccccc3c3[nH]c(C4CCCCCC4)nc23)cc1Cl

>  <QUANTITY_KIND>
Activity

>  <READOUT_VALUE>
115

$$$$
>  <STRUCTURE>
Clc1ccc(Nc2[nH]c3ccccc3c3nc(-c4ccco4)nc2-3)cc1Cl

>  <QUANTITY_KIND>
Activity

>  <READOUT_VALUE>
95

$$$$
>  <STRUCTURE>
c1ccc2c3nc(C4CCCC4)nc-3c(Nc3ccc4cc[nH]c4c3)[nH]c2c1

>  <QUANTITY_KIND>
Activity

>  <READOUT_VALUE>
125

$$$$
>  <STRUCTURE>
c1ccc(CCNc2[nH]c3ccccc3c3nc(C4CCCC4)nc2-3)cc1

>  <QUANTITY_KIND>
Activity

>  <READOUT_VALUE>
137

$$$$
>  <STRUCTURE>
OCc1cccc(Nc2[nH]c3ccccc3c3nc(C4CCCC4)nc2-3)c1

>  <QUANTITY_KIND>
Activity

>  <READOUT_VALUE>
118

$$$$
>  <STRUCTURE>
c1ccc2c3nc(C4CCCC4)nc-3c(Nc3ccc4c(c3)CCC4)[nH]c2c1

>  <QUANTITY_KIND>
Activity

>  <READOUT_VALUE>
111

$$$$
>  <STRUCTURE>
COc1ccc(Nc2nc3ccccc3c3nc(C4CCCC4)[nH]c23)cc1

>  <QUANTITY_KIND>
Activity

>  <READOUT_VALUE>
132

$$$$
